Test system: HACAT
Test: qHTS assay to identify novel small-molecules to repurpose for Merkel cell carcinoma treatment (AID 1296009); note: nearly all actives have a fitted effect of over 60% in size
Conditions: MCC and control cell lines, CellTiter-Glo viability, 72 h; at 44.8 µM (top of the series) unless noted
Results filed as inconclusive are left out. Active and inactive are the calls of the source. Calls come from the whole dose curve; as a rule, active = well fitted inhibition curve with a large enough effect; inconclusive = small, poorly fitted or top-dose-only effect; inactive = flat fitted curve, though single readings scatter.

{"columns": ["compound", "outcome"],
 "data": [
  ["C[C@]12CCC(=O)C=C1CC[C@@H]1[C@@H]2CC[C@@]2(C)[C@H]1CC[C@]2(C)O", "inactive"],
  ["C[N+]1(CCF)[C@@H]2CC[C@H]1CC(OC(=O)C(O)(c1ccccc1)c1ccccc1)C2 (stereo not given in full)", "inactive"],
  ["CC(C)=CC1C(C(=O)OCN2C(=O)C3=C(CCCC3)C2=O)C1(C)C (stereo not given)", "inactive"]
]}

====

Target: Cytochrome P450 2D6 (Homo sapiens) (UniProt P10635)
Sequence (P10635 whole entry, looked up): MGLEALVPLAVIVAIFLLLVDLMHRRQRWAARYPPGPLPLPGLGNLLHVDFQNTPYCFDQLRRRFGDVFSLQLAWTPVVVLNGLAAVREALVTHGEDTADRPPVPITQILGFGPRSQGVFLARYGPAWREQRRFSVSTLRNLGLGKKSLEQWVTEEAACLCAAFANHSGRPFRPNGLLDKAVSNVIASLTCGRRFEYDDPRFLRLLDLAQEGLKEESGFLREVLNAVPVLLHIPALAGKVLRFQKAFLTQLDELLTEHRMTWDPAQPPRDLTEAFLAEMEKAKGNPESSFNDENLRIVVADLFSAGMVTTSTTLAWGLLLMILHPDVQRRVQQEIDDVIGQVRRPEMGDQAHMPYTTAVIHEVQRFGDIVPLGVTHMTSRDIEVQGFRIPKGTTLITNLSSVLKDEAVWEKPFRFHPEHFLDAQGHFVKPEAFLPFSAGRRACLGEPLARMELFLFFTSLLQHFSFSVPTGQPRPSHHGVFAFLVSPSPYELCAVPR
Assay: Cytochrome P450 family 2 subfamily D member 6 (CYP2D6) small molecule antagonists: luciferase biochemical (cell-free) qHTS assay (AID 1645840); note: nearly all actives have a fitted effect of over 55% in size
Details: P450-Glo CYP2D6 enzyme, luciferin luminescence, 1 h; series mostly up to 57.4 µM
Inconclusive results are not listed. Calls of active or inactive are those of the source. Calls come from the whole dose curve; as a rule, active = well fitted inhibition curve with a large enough effect in the repeat runs; inconclusive = weak or mixed curves; inactive = flat fitted curve, though single readings scatter.
Assign a class; possible classes are True (active), False (inactive)

Look over these answered cases.
{"columns": ["compound", "category"],
 "data": [
  ["O=C(N/N=C/c1ccc([N+](=O)[O-])o1)c1cc([N+](=O)[O-])cc([N+](=O)[O-])c1O", "True"],
  ["CCC(C)C(C)(COC(N)=O)COC(N)=O (stereo unspecified)", "False"],
  ["CCC1(c2ccc(N)cc2)CCC(=O)NC1=O (stereo unspecified)", "False"]
]}

Req: Test call, this compound: CC(C)(C)NCC(O)c1cc(Cl)c(N)c(C(F)(F)F)c1 (stereo unspecified)
Resp: True

Req: Give the logged outcome of this assay for the following compound: CC(NC(C)(C)C)C(=O)c1cccc(Cl)c1 (stereo unspecified)
Resp: True

Req: Which outcome was assigned to COc1cccc2c1C(=O)c1c(O)c3c(c(O)c1C2=O)C[C@@](O)(C(=O)CO)CC3OC1CC(N2CCOC(OC)C2)C(O)C(C)O1 (stereo partly specified) in this test?
Resp: False

====

Overview of recorded Potency for various compounds
Assay: Primary qHTS for inhibitors of SARS-S pseudo-typed particle cell entry (AID 1479145); note: potency is the fitted concentration of half-maximal effect; nearly all actives have a fitted effect of over 45% in size
Settings: SARS-S pseudotyped particle cell entry, luciferase reporter; series mostly up to 57.1 µM
Inconclusive results are not listed. Calls of active or inactive are those of the source. Calls come from the whole dose curve.

See these solved cases before continuing.
{"columns": ["compound", "Potency"],
 "data": [
  ["COc1cc(NS(C)(=O)=O)ccc1Nc1c2ccccc2nc2ccccc12", "0.794 µM (active)"],
  ["Nc1nc(Cl)nc2c1ncn2[C@@H]1O[C@H](CO)[C@@H](O)[C@@H]1F", "20 µM (active)"]
]}

Req: Field request: Potency | item: COc1cccc2c1C(=O)c1c(O)c3c(c(O)c1C2=O)C[C@@](O)(C(=O)CO)C[C@@H]3O[C@H]1C[C@H](N)[C@@H](O)[C@H](C)O1
Resp: 10 µM (active)

Req: I'd like to know its Potency. The compound in question is O=c1c(C2CC(c3ccc(-c4ccc(Br)cc4)cc3)Cc3ccccc32)c(O)sc2ccccc12 (centres undefined)
Resp: 25.1 µM (active)

Just for reference, PubChem BioAssay (NCATS) is where these values come from.
